- Tested on: MS2 coat protein
- protocol: apparent KD of MS2 coat protein; designed switch direction (-1 OFF switch, 1 ON switch): 1; higher = weaker reporter binding
- run-conditions: Eterna round: R95; input ligand: none
Binary classification by apparent KD of MS2 coat protein, with 90 nM as an inclusive lower bound for Met; all other cases are Not met.

Past entries and their recorded results:
[[record]]
biosequence = "AUUAAACAUGAGGAUCACCCAUGUCAACAAAGUCGAGGAUAUGGGCAAAUAAAAUAAUAACCAGAAGGCGAAUAAU [salish99_ss1_r3_065] (puzzle: Same State 1)"
label_class = "Met"

[[record]]
biosequence = "UUAUAACAUGAGGAUCACCCAUGUCAACAAAGUCGAGGAUAUGGGCAAGAAUUGAGAGAACCAGAAGGCGAAUAUU [Mat - Same State 1 - Mod of UCT - D31] (puzzle: Same State 1)"
label_class = "Met"

[[record]]
biosequence = "AUAUAACAUGAGGAUCACCCAUGUCUCUAAAGUUGAGGAUAUGGGCAGGUUAUAUCCGAACCAGAAGGCGAAUUAU [SS1 Teenbexe 7] (puzzle: Same State 1)"
label_class = "Met"

[[record]]
biosequence = "AUUAAACAUGAGGAUCACCCAUGUAUUAUUAUGGGAGGAUAUGCGAAUUUAAUUAAUUAAGCAGAAGGCCUAAUUA [Mat - Same State 1 - D102] (puzzle: Same State 1)"
label_class = "Met"

[[record]]
biosequence = "GUAGAUAUAACGCAGGAUAUUCAAUGAGAGACAUGAGGAUCACCCAUGUGAGAGUGAGAUGAUAGGAAGAAGGGUGAGAGAGAUG [Altered State 2-8 - Jieux - Same State 2] (puzzle: Same State 2)"
label_class = "Met"

[[record]]
biosequence = "GAAAGAGGAAGCGAGGAUAUCGUGUUGAGUACAUGAGGAUCACCCAUGUUGUAGGUAGAGGUAGGCGAGAAGGCGCAGGAGAAGA [JR_SS2_Sub0101] (puzzle: Same State 2)"
label_class = "Not met"

[[record]]
biosequence = "CAGCGCUGUUGAGAGGAUAUGCGGUGAUGGACAUGAGGAUCACCCAUGUUAGCGACAGCAUUACGGUAGAAGGCUUCACAGCUGC [Soteed Omei mod 16] (puzzle: Same State 2)"
label_class = "Met"

[[record]]
biosequence = "GUAAGUUUGAUGCUCGUCUCUCCGUACAAACAUGAGGAUCACCCAUGUGGUCGGGAAGUAGCCCGGCCAGUAUGGCC [Rerire] (puzzle: Sensor for hsa-mir-208a)"
label_class = "Not met"


Can AGUCCAGCCUGAGCUGGACAAAAGCAUGUACAUGAGGAUCACCCAUGUCAUGUACAAGCUUUUUGCUCAUCUUAAAA [Mat - hsa-mir-208a - Mod of JL - D11] (puzzle: Sensor for hsa-mir-208a) be said to have apparent KD of MS2 coat protein at or above 90 nM? Met

Decide: is the reported value of apparent KD of MS2 coat protein for GAGAGAGGAAGCGAGGAUAUCGUGUUGAGUACAUGAGGAUCACCCAUGUUGUAGGUAGAGGUAGGCGAGAAGGCGCAGGAGAGGG [JR_SS2_Sub099] (puzzle: Same State 2) equal to or greater than 90 nM? Not met

Hi, just wondering whether AGUCCAGCGAAAGCUGGACAAAAGUAUGUACAUGAGGAUCACCCAUGUUCAUGUACAAGCUUUUUGCUCGUCUUAAA [JL mod - D95 - 10] (puzzle: Sensor for hsa-mir-208a) shows apparent KD of MS2 coat protein of 90 nM or higher. Met

Given AGUCCAGCAUAAGCUGGACAAAAGCAUGUACAUGAGGAUCACCCAUGUUCAUGUACAAGCUUUUUGCAAGUCAAAAU [Mat - hsa-mir-208a - Mod of JL - 82] (puzzle: Sensor for hsa-mir-208a) , state whether its apparent KD of MS2 coat protein is at least 90 nM. Met

For this sequence, is measured apparent KD of MS2 coat protein 90 nM or higher? GGUUUAGUCGAGUACCGUUCCACUCGAAAACAUGAGGAUCACCCAUGUUUGGGACAAGCUUUGCUCCUCGUCUUUCC [Inardiza] (puzzle: Sensor for hsa-mir-208a) Not met
